- experiment_description: Enteral absorption in vivo (rats): plasma level of the antibiotic after intraduodenal injection, agar plate bioassay
- measurement_context: female, rat, plasma, other: intraduodenal injection (enteral), 20 mg/kg, enteral (duodenum), Dosis = 5 mg/0,5 ml, Labrasol + Caprylsäure + Natriumcaprylat, weight ratio 4:1:1
measured_attribute: Cmax

Assign Cmax to the following record: CO/N=C(\C(=O)N[C@@H]1C(=O)N2C(C(=O)O)=C(CSc3nc(=O)c(=O)[nH]n3C)CS[C@H]12)c1csc(N)n1
52.2 µg/mL

* * *

- experiment_description: Rectal absorption in vivo (monkeys): plasma level of the antibiotic after suppository
- measurement_context: both sexes, monkey, plasma, 500 mg, rectal suppository, Mit Resorptionsverstärker, Formulierung C (500 mg antibiotic, Labrasol 250 mg, Caprylsäure 200 mg), read-out: Cmax Bereich
measured_attribute: Cmax

molecule	value
CO[C@@]1(NC(=O)C2SC(=C(C(N)=O)C(=O)O)S2)C(=O)N2C(C(=O)O)=C(CSc3nnnn3C)CS[C@@H]21 (some centres unmarked) [Cefotetan]	4300 to 21100 ng/mL

Attention now turns to another entry.
Assign Cmax to the following record: CO/N=C(\C(=O)N[C@@H]1C(=O)N2C(C(=O)O)=C(CSc3nc(=O)c(=O)[nH]n3C)CS[C@H]12)c1csc(N)n1 [Ceftriaxon]
21600 to 46600 ng/mL

* * *

- experiment_description: Enteral absorption in vivo (rats): plasma level of the antibiotic after intraduodenal injection, agar plate bioassay
- measurement_context: rat, in vivo, 20 mg/kg, enteral (duodenum), Dosis = 5 mg/0,5 ml, Labrasol + Caprylsäure + Natriumcaprylat, weight ratio 4:1:1
measured_attribute: Cmax (ng/mL)
Answer in ng/mL, number only, no unit symbol.

Assign Cmax to the following record: CC1(C)S[C@@H]2[C@H](NC(=O)Cc3ccccc3)C(=O)N2[C@H]1C(=O)O
2900

* * *

- experiment_description: Rectal absorption in vivo (monkeys): plasma level of the antibiotic after suppository
- measurement_context: both sexes, monkey, plasma, rectal suppository, Mit Resorptionsverstärker, Formulierung D (500 mg antibiotic, Labrasol 250 mg, Caprylsäure 100 mg, Natriumcaprylat 100 mg), read-out: Cmax Bereich
measured_attribute: Cmax

compound	Cmax
CO[C@@]1(NC(=O)C2SC(=C(C(N)=O)C(=O)O)S2)C(=O)N2C(C(=O)O)=C(CSc3nnnn3C)CS[C@@H]21 (some centres unmarked) [Cefotetan]	2500 to 61500 ng/mL

Assign Cmax to the following record: CO/N=C(\C(=O)N[C@@H]1C(=O)N2C(C(=O)O)=C(CSc3nc(=O)c(=O)[nH]n3C)CS[C@H]12)c1csc(N)n1 [Ceftriaxon]
16300 to 38300 ng/mL

* * *

- experiment_description: Rectal absorption in vivo (monkeys): plasma level of the antibiotic after suppository
- measurement_context: both sexes, monkey, plasma, rectal, Kontrolle ohne Resorptionsverstärker, read-out: Cmax Bereich
measured_attribute: Cmax

compound	Cmax
CO/N=C(\C(=O)N[C@@H]1C(=O)N2C(C(=O)O)=C(CSc3nc(=O)c(=O)[nH]n3C)CS[C@H]12)c1csc(N)n1	300 to 9000 ng/mL

Attention now turns to another entry.
Assign Cmax to the following record: CO[C@@]1(NC(=O)C2SC(=C(C(N)=O)C(=O)O)S2)C(=O)N2C(C(=O)O)=C(CSc3nnnn3C)CS[C@@H]21 (some centres unmarked)
2400 to 10100 ng/mL

* * *

- experiment_description: Enteral absorption in vivo (rats): plasma level of the antibiotic after intraduodenal injection, agar plate bioassay
- measurement_context: female, rat, in vivo, 20 mg/kg, enteral (duodenum), Dosis = 5 mg/0,5 ml, Labrasol + Caprylsäure + Natriumcaprylat, weight ratio 4:1:1
measured_attribute: Cmax (ng/mL)
Answer in ng/mL, number only, no unit symbol.

Assign Cmax to the following record: CN[C@H](CC(C)C)C(=O)N[C@H]1C(=O)N[C@@H](CC(N)=O)C(=O)N[C@H]2C(=O)N[C@H]3C(=O)N[C@H](C(=O)N[C@H](C(=O)O)c4cc(O)cc(O)c4-c4cc3ccc4O)[C@H](O)c3ccc(c(Cl)c3)Oc3cc2cc(c3O[C@@H]2O[C@H](CO)[C@@H](O)[C@H](O)[C@H]2O[C@H]2C[C@](C)(N)[C@H](O)[C@H](C)O2)Oc2ccc(cc2Cl)[C@H]1O
5300

* * *

- experiment_description: Enteral absorption in vivo (rats): plasma level of the antibiotic after intraduodenal injection, agar plate bioassay
- measurement_context: female, rat, plasma, other: intraduodenal injection (enteral), 20 mg/kg, enteral (duodenum), Dosis = 5 mg/0,5 ml, Labrasol + Caprylsäure, weight ratio 2:1
measured_attribute: Cmax (µg/mL)
Answer in µg/mL, number only, no unit symbol.

Assign Cmax to the following record: CO/N=C(\C(=O)N[C@@H]1C(=O)N2C(C(=O)O)=C(CSc3nc(=O)c(=O)[nH]n3C)CS[C@H]12)c1csc(N)n1 [Ceftriaxon]
57

FYI, the data here is from patent EP0418674A1.
